target: EGFR L858R/T790M/C797S (Homo sapiens, UniProt P00533, C797S/L858R/T790M); assay: Biochemical EGFR kinase inhibition assay (Lance Ultra TR-FRET), triple mutant L858R/T790M/C797S; settings: Km ATP; read-out: IC50 L858R/T790M/C797S (nM), Km ATP
Sequence (P00533 25-1210 T790M/C797S/L858R): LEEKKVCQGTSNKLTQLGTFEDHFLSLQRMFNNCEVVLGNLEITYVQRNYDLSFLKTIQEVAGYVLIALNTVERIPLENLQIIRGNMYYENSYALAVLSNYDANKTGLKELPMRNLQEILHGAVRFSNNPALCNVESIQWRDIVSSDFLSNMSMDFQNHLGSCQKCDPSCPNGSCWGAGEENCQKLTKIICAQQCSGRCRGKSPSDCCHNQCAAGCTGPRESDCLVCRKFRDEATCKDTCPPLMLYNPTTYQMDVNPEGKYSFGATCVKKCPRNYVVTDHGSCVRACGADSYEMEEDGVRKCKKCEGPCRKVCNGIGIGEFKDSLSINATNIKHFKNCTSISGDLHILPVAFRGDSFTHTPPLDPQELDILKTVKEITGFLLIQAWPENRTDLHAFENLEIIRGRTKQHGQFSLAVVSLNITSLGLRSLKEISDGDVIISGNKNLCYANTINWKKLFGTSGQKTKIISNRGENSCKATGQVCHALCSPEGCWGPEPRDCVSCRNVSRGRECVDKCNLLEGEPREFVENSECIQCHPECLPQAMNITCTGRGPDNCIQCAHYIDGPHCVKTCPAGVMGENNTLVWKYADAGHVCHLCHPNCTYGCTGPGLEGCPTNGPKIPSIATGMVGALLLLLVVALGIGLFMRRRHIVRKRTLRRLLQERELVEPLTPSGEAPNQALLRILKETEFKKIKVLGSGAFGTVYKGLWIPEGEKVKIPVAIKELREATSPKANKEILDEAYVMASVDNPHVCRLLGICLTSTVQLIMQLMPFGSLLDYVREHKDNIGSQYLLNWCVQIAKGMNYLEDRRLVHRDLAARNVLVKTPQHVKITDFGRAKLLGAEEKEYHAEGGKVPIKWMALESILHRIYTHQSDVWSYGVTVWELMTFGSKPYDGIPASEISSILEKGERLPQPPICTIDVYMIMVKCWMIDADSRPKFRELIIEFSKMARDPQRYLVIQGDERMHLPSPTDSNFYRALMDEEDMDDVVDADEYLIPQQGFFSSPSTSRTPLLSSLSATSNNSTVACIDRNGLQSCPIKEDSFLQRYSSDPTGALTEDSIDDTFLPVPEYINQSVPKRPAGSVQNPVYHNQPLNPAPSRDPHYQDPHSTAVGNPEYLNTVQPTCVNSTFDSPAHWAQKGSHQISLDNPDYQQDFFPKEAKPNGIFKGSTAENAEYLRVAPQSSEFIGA
test_readout: log10(IC50) (log10 of the value in nM)
Lab note - IC50 converted to log10 from values in nM.

Exercise: Tell me reported log10(IC50) for CS(=O)(=O)N1CCC(C#Cc2cnc(Nc3ccnc(-c4cnn(S(=O)(=O)C5CC5)c4)n3)cc2N[C@H]2CC[C@@H](CO)CC2)CC1 [Example 387] , tested with EGFR L858R/T790M/C797S (Homo sapiens, UniProt P00533, C797S/L858R/T790M).
Solution: -0.70

Exercise: Tell me reported log10(IC50) for O=S1(=O)CCC(C#Cc2cnc(Nc3ccnc(-c4cnn(S(=O)(=O)C5CC5)c4)n3)cc2NC2CCC(CO)CC2)C1 (stereo not drawn) [Example 428] , tested with EGFR L858R/T790M/C797S (Homo sapiens, UniProt P00533, C797S/L858R/T790M).
Solution: -1.00

Exercise: Tell me reported log10(IC50) for C[C@]1(O)CC[C@H](CNc2cc(Nc3ccnc(-c4cnn(S(=O)(=O)C5CC5)c4)n3)ncc2C#Cc2cnn(CCF)c2)CC1 [Example 380] , tested with EGFR L858R/T790M/C797S (Homo sapiens, UniProt P00533, C797S/L858R/T790M).
Solution: 0.41

Exercise: Tell me reported log10(IC50) for CC1(CO)CCN(c2cc(Nc3ccnc(-c4cnn(S(=O)(=O)C5CC5)c4)n3)ncc2C#CC2(O)CCC2)CC1 [Example 351] , tested with EGFR L858R/T790M/C797S (Homo sapiens, UniProt P00533, C797S/L858R/T790M).
Solution: -0.10

Exercise: Tell me reported log10(IC50) for CC1OCCC1C#Cc1cnc(Nc2ccnc(-c3cnn(S(=O)(=O)C4CC4)c3)n2)cc1NC1CCC(CO)CC1 (stereo not drawn) [Example 430] , tested with EGFR L858R/T790M/C797S (Homo sapiens, UniProt P00533, C797S/L858R/T790M).
Solution: -0.52

Exercise: Tell me reported log10(IC50) for CS(=O)(=O)N1CCC(C#Cc2cnc(Nc3ccnc(-c4cnn(S(=O)(=O)C5CC5)c4)n3)cc2NCC2CCC(O)CC2)C1 (stereo not drawn) [Example 398] , tested with EGFR L858R/T790M/C797S (Homo sapiens, UniProt P00533, C797S/L858R/T790M).
Solution: 1.39
